Experiment: ST_JUDE: Cytotoxicity using luciferase to measure ATP as an indicator of the viability of human foreskin fibroblast cells (BJ)
Assay type: toxicity, cell-based
Provide the recorded EC50 for the entries that follow.

Q: Consider the molecule Clc1ccc(Nc2nc(NCc3ccco3)c3ccccc3n2)cc1 and give its measured EC50.
A: > 46.4 µM

Q: Consider the molecule CCCCOc1ccc(N(C(C)=O)C2=C(N3CCCCC3)C(=O)c3ccccc3C2=O)cc1 and give its measured EC50.
A: > 28.5 µM

Q: Consider the molecule CCOc1cc2c(cc1OCC)C(c1cc(Cl)ccc1O)NCC2 (centres undefined) and give its measured EC50.
A: > 46.9 µM

Q: Consider the molecule CO/C(O)=C1\C(C)=NC2=C(C(=O)CC(c3ccc(OC)c(OC)c3)C2)C1c1ccc(F)cc1 (centres undefined) and give its measured EC50.
A: > 46.3 µM

Measured values drawn from ChEMBL document CHEMBL1154198 for this set.
